Collected inhibition values appear next to each entry.
# assay: TLR3 IRF3 reporter activation blockers – cell-based, poly I:C stimulus, luciferase, 10K MLSCN set, primary screen (AID 602277)
# condition-notes: HEK293-TLR3 RL24 IRF3 luciferase reporter, at 10 µM, hits give high values
Provide only the numeric value, understood in %.

Solved entries:
O=C(N1CCCCCC1)N1CCN(S(=O)(=O)N2CCCCC2)CC1	12.9
COc1ccc(C2C(C(C)=O)=C(C)N=c3s/c(=C\c4ccc5c(c4)OCO5)c(=O)n32)c(OC)c1 (stereo not drawn)	20.7
CC1(C)CC(=O)C2=C(C1)N(Cc1ccco1)C(=O)C2(NC(=O)C1CCCCC1)C(F)(F)F (stereo not drawn)	21.1
O=C(c1ccc(-c2cccc(C(F)(F)F)c2)o1)N1CCOCC1	-93.2

Challenge: Which inhibition is reported for this compound? COc1ccccc1-c1c(C)nn2c(C)c(C(C)=O)cnc12
Response given: 14.2

Challenge: Another compound to check: CNC(=O)CN(c1cc(C)ccc1OC)S(=O)(=O)c1ccc(C)cc1
Response given: 6.94

Challenge: Another compound to check: Cc1ccc(-n2c(=O)[nH]c3c(C(N)=O)nc(CC(C)C)nc32)cc1
Response given: 8.27

Challenge: Another compound to check: OCCOCCN1CCN(C(c2ccccc2)c2ccc(Cl)cc2)CC1 (stereo not drawn)
Response given: 34.4

Challenge: Another compound to check: N#CC1=C(N)Oc2n[nH]c(-c3cccs3)c2C1c1cccs1 (stereo not drawn)
Response given: 17.8

Challenge: Another compound to check: Cc1nc2ccccn2c1/C(O)=C1\C(=O)C(=O)N(CCN2CCOCC2)C1c1cccs1 (stereo not drawn)
Response given: 7.4

Challenge: Another compound to check: CCOC(=O)c1ccc(Oc2nc(NC)nc(OC)n2)cc1
Response given: 18.3

Challenge: Another compound to check: COc1ccc2cnn(-c3ccccc3)c(=O)c2c1OC
Response given: -25.4
